Test system: 192522-019-R-J2-PDC complex tumor spheroid viability;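 also: spheroids exposed to drugs for seven days before reading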
protocolDetails: Anticancer human tumor 192522-019-R-J2-PDC patient-derived colon adenocarcinoma cell line growth inhibition [POLQ]
assayConditions: curve of first compound; second compound 3.16 µM
readoutKind: IC50

| compound | readoutKind | result |
| --- | --- | --- |
| CCc1cc2c(N3CCc4c(cc(Cn5ccnc5)cc4-c4cn(C)nc4C(F)(F)F)C3=O)ccnc2c(OC)n1 + COC1C(OC(N)=O)C(O)C(Oc2ccc3c(O)c(NC(=O)c4ccc(O)c(CC=C(C)C)c4)c(=O)oc3c2C)OC1(C)C | IC50 | > 10 µM |
| CC1COCCN1c1cc(C2(S(C)(=N)=O)CC2)nc(-c2ccnc3[nH]ccc23)n1 (stereo not drawn) + Cc1cccc(N(C)C(=O)C2C(O)CCN2c2nc(C)cc(C(F)(F)F)c2C#N)c1 | IC50 | 7.68 µM |
| CNCc1ccc(-c2[nH]c3cc(F)cc4c3c2CCNC4=O)cc1 + Cc1cccc(N(C)C(=O)C2C(O)CCN2c2nc(C)cc(C(F)(F)F)c2C#N)c1 | IC50 | > 10 µM |
